system: Wnt5a (protein binding on small-molecule microarray); assay: small molecules binding Wnt5a protein – biophysical, small-molecule microarray, 635/667 nm fluorescence, primary screen (AID 1142); conditions: 635 nm fluorescence, higher = more signal;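 further: fluorescence read at 667 nm with signal to noise per printed feature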
MEASUREMENT TYPE: composite z-score

>>> observed_measurement("COc1ccc([Si](C)(C)[C@H]2[C@H](CCO)O[C@@]3(C(=O)N(Cc4cccc(N5C(=O)c6cccc7cccc5c67)c4)c4ccccc43)[C@@H]2C)cc1")
0.346
>>> observed_measurement("Cc1ccc(S[C@]2(C(=O)NCCCN(C)C)CC(=O)N(Cc3ccccc3)[C@@H]2c2ccc(CO)cc2)cc1")
-0.2
>>> observed_measurement("COc1ccc([Si](C)(C)[C@H]2[C@H](CC(=O)N3Cc4ccccc4C[C@H]3CO)O[C@@]3(C(=O)N(Cc4cccc(I)c4)c4ccccc43)[C@@H]2C)cc1")
0.378
